Ref: PubChem BioAssay (NCATS)

- testedTarget: Retinaldehyde dehydrogenase 3 (Homo sapiens)
- assayOverview: qHTS for Inhibitors of the Aldehyde Dehydrogenase Family (ALDH1A3) Primary screen (AID 2061315)
- conditionsUsed: ALDH inhibition qHTS; series mostly up to 56 µM
Results filed as inconclusive are left out. Activity calls are given as the source filed them. The call rests on the fitted dose curve; in most records, active means well fitted inhibition curve with a large enough effect; inconclusive means small, poorly fitted or top-dose-only effect; inactive means no such curve, though single readings can be large or run the other way.
recordedEndpoint: activity change, negative = inhibition

compound: COc1cc2c(cc1OC)CN(C(=O)[C@@H](NCc1ccncc1)C(C)(C)C)CC2
recordedEndpoint: activity change, negative = inhibition
observedMeasurement: inactive
//
compound: COc1ccc(O[C@@H]2O[C@H](CO)[C@@H](O)[C@H](O)[C@H]2O)cc1OC
recordedEndpoint: activity change, negative = inhibition
observedMeasurement: inactive
//
compound: CC1(C)CC[C@]2(C(=O)O[C@@H]3O[C@H](CO)[C@@H](O)[C@H](O)[C@H]3O)CC[C@]3(C)C(=CCC4[C@@]5(C)C[C@@H](O)[C@H](O)[C@@](C)(CO)C5[C@H](O)C[C@]43C)C2C1 (stereo partly drawn)
recordedEndpoint: activity change, negative = inhibition
observedMeasurement: inactive
//
compound: CN(Cc1cccs1)c1ncnc2ccc(-c3ccc4cnn(C)c4c3)cc12
recordedEndpoint: activity change, negative = inhibition
observedMeasurement: inactive
//
compound: Cc1ccc2nc3sc(C(=O)NCCN4CCOCC4)cc3cc2c1
recordedEndpoint: activity change, negative = inhibition
observedMeasurement: inactive
//
compound: COc1ccc(-c2cnc3ccc(NCc4ccc(S(N)(=O)=O)cc4)nn23)cc1OC
recordedEndpoint: activity change, negative = inhibition
observedMeasurement: inactive

Query: activity change, negative = inhibition lookup needed for CN(C)C/C=C/C(=O)Nc1cccc(C(=O)Nc2cccc(Nc3ncc(Cl)c(-c4c[nH]c5ccccc45)n3)c2)c1 , thanks.
Response: inactive

Query: activity change, negative = inhibition lookup needed for Cc1cccc(Nc2nc(N[C@@H]3CCCC[C@H]3N)ncc2C(N)=O)c1 , thanks.
Response: inactive

Query: activity change, negative = inhibition lookup needed for COc1ccc(C2(N(C)C(=O)c3ccc(NC(=O)c4ccco4)cc3)CCOCC2)cc1 , thanks.
Response: inactive

Query: activity change, negative = inhibition lookup needed for COC1(CC(C)C)NC(=O)C(O)(Cc2ccccc2)NC1=O (stereo not drawn) , thanks.
Response: inactive

Query: activity change, negative = inhibition lookup needed for CCN=C1N[C@@H]2[C@@H](O)[C@H](O)[C@@H](CO)O[C@@H]2S1 , thanks.
Response: inactive

Query: activity change, negative = inhibition lookup needed for O=C(NCC(=O)N1CCCC1)Nc1ccc2cnccc2c1 , thanks.
Response: inactive

Query: activity change, negative = inhibition lookup needed for CCCS(=O)(=O)Nc1ccc(F)c(C(=O)c2c[nH]c3ncc(Cl)cc23)c1F , thanks.
Response: inactive

Query: activity change, negative = inhibition lookup needed for NC1CCN(c2nc(-c3ccc(Br)cc3)cs2)CC1 , thanks.
Response: inactive

Query: activity change, negative = inhibition lookup needed for O=C(Cc1ccc(-c2ccccc2)cc1)NC1CCC1 , thanks.
Response: inactive

Query: activity change, negative = inhibition lookup needed for O=C1Nc2ccccc2C(O)(c2ccccc2)C1O (stereo not drawn) , thanks.
Response: inactive

Query: activity change, negative = inhibition lookup needed for Cc1nc(NCc2ccc(-c3cccnc3)cc2)c2ccccc2n1 , thanks.
Response: inactive

Query: activity change, negative = inhibition lookup needed for CC(=O)O[C@H]1CC(C)(C)CC2[C@@]13[C@H](O)C[C@]1(C)[C@@]2(CCC2[C@@]4(C)CC[C@H](O[C@@H]5OC[C@H](O[C@@H]6O[C@H](CO)[C@@H](O)[C@H](O)[C@H]6O[C@@H]6OC[C@@H](O)[C@H](O)[C@H]6O)[C@H](O)[C@H]5O[C@@H]5O[C@H](CO)[C@@H](O)[C@H](O)[C@H]5O)C(C)(C)C4CC[C@]21C)O[C@@H]3O (stereo partly drawn) , thanks.
Response: inactive
